- Measurement Description: HUVEC growth inhibition – cell-based, human, primary screen (AID 575);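 note: 100% = median of untreated cell wells with 0.1% DMSO on each plate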
- Condition Set: HUVEC proliferation, CellTiter-Glo luminescence, 72 h; at 10 µM; stronger effect = lower value
Measured Property: viability (%)

* COc1ccc(C2CC(c3ccccc3)Nc3nc(NC(=O)c4cccs4)nn32)cc1 (stereo not given) | 83.3
* CCOC(=O)N1CCN(C(=O)c2n[nH]c(=O)c3ccccc23)CC1 | 95.1
* O=C(Nc1ccc(F)cc1)c1cccc2c1C(=O)N(Cc1ccccn1)C2 | 87.5
* COc1ccc(C(=O)CSc2nnc(C3CCCCC3)n2N)c(OC)c1 | 119
* C=CCN1C(=O)/C(=C2\SC(N3CCOCC3)=NC2=O)c2cc(Br)ccc21 | 86.1

###

- Measurement Description: reversal of MRP1-mediated doxorubicin resistance, pilot screen, H69AR cells, doxorubicin co-treatment (AID 601)
- Condition Set: H69AR cells + 2 uM doxorubicin, CellTiter-Glo, 72 h; measured here: viability with 2 uM doxorubicin; at 10 µM; stronger effect = lower value
Under this convention, True denotes viability strictly below 90% and False denotes viability at or above 90%.

* O=C(NCC1CCCO1)C1CCCN(S(=O)(=O)c2cccc3nsnc23)C1 (stereo unspecified) | True
* COc1ccccc1C1CC(c2ccc(C)cc2)Nc2ncnn21 (stereo unspecified) | False
* CCOc1ccc(-n2cc(C(=O)Nc3cccc(C)n3)c3cc(OC)c(OC)cc3c2=O)cc1 | True

###

- Measurement Description: reversal of MRP1-mediated doxorubicin resistance, pilot screen, H69AR cells, doxorubicin co-treatment (AID 601)
- Condition Set: H69AR cells, CellTiter-Glo, 72 h; compound alone cytotoxicity; at 10 µM
viability overview
Measured Property: viability

• CCCOc1ccc(C2c3c(oc4ccccc4c3=O)C(=O)N2CCCN2CCOCC2)cc1 (stereo unspecified) = 71.6%
• N#Cc1nc(-c2ccco2)oc1NCc1ccco1 = 100%
• O=C(CSc1nnc(-c2ccccc2Cl)n1Cc1ccco1)Nc1ccc2c(c1)OCCO2 = 77.7%
• O=C(NC1CCCc2ccccc21)C1CCN(S(=O)(=O)c2cnc[nH]2)CC1 (stereo unspecified) = 94.8%
• Cc1cccc2c1N(CC(=O)OC(C)C)C(=O)C2=O = 75.2%
• CCNC(=O)COc1ccc(Br)cc1Cl = 93.2%

###

- Measurement Description: reversal of MRP1-mediated doxorubicin resistance, pilot screen, H69AR cells, doxorubicin co-treatment (AID 601)
- Condition Set: H69AR cells + 2 uM doxorubicin, CellTiter-Glo, 72 h; measured here: viability with 2 uM doxorubicin; at 10 µM; stronger effect = lower value
Measured Property: viability (%)

• Cn1c(SCC(=O)N2CCN(c3cccc(Cl)c3)CC2)nnc1-c1ccncc1 = 98.3
• O=C(c1ccc(Cl)cc1)C1CCN(C(=O)NC2CCCCC2)CC1 = 87
• COCCN1C(=O)C(=O)/C(=C(/O)c2cccc(S(=O)(=O)N(C)C)c2)C12C(=O)N(C)c1ccccc12 (stereo not given) = 95.9
• CC(CN1CCN(C)CC1)OC(=O)c1ccc(Cl)cc1Cl (stereo not given) = 88.2
• COC(=O)c1cc(Br)c(=O)n(CCC2=CCCCC2)c1 = 88.4
• O=C(O)CCc1ccc(-c2ccc(F)cc2)n1CC(=O)O = 87.2
• COC(=O)CC1SC(=O)NC1=O (stereo not given) = 94.6
• Cc1ccc(NC(=O)c2ccc(NS(=O)(=O)c3c(C)noc3C)cc2)cc1C = 83.4
• O=C(Nc1nccs1)NC(C(F)(F)F)C(F)(F)F = 95.1
• COC(=O)c1ccccc1NC(=O)CSc1nnnn1C1CCCCC1 = 85
• O=C(NCc1cccnc1)c1ccccc1Br = 94.2
• COc1cc(C(c2sc3nc(C)nn3c2O)N2CC(C)CC(C)C2)cc(OC)c1OC (stereo not given) = 103
• Cc1occc1-c1nnc(SCC(=O)N2CCc3ccccc32)o1 = 2.5
• COc1ccc(NC(=O)CCCN2C(=O)C3C4C=CC(C4)C3C2=O)c(OC)c1 (stereo not given) = 97.1
• Cc1ccc(NC(=O)C2CCCN2S(=O)(=O)c2cccc3cccnc23)cc1F (stereo not given) = 100
• CCN(CC)S(=O)(=O)c1ccc(NC2c3ccccc3C(=O)N2CCN2CCOCC2)cc1 (stereo not given) = 76.2
• O=S(=O)(c1ccccc1)c1nc(-c2ccco2)oc1NCCCN1CCOCC1 = 96.8
• CCSc1nnc(-c2cccs2)o1 = 96.6
• CCOC(=O)N1CCN(c2ncnc3c2[nH]c2ccc(OC)cc23)CC1 = 77.9
• CCOc1ccc(S(=O)(=O)Nc2cccc(Cl)c2)cc1 = 60.7
• CN(C)c1ccc2c(c1)OC(N)=C(C#N)C2c1cccc(F)c1 (stereo not given) = 75.7
• COc1cc(C(=O)Nc2ccc3c(c2)C(=O)N(CCC(=O)O)C3=O)cc(OC)c1OC = 100
• CCc1nc(SCC(=O)Nc2nccs2)c2oc3ccccc3c2n1 = 42.6
• O=C(c1cccn2c(=O)c3cc(Cl)ccc3nc12)N1CCOCC1 = 96
• Cc1ccccc1NC(=O)N1C2CCCC1CC(NC(=O)C1CC1)C2 (stereo not given) = 93.9
• CCCCn1nnnc1SCC(=O)Nc1cccc(C)n1 = 105
• CC(=O)Nc1ccc2c(c1)nc(CCNC(=O)c1ccccc1)n2C = 85.7
• CCOC(=O)N1CCC(N2CC34C=CC(O3)C(C(=O)O)C4C2=O)CC1 (stereo not given) = 81.8
• Cc1nc2ccccn2c1P(=O)(N1CCCCC1)N1CCCCC1 = 89.3
• Cc1ccc(NC(=O)CCN2CCc3ccccc3C2)cc1 = 101
• CC(=O)N1CCc2cc(S(=O)(=O)NC(C(=O)NCc3ccccc3)C(C)C)ccc21 (stereo not given) = 90.1
• CCN(CC)S(=O)(=O)c1cccc(-c2nnc(SCC(N)=O)n2CCc2ccccc2)c1 = 84
• CN(C1CCS(=O)(=O)C1)S(=O)C12CC3CC(CC(C3)C1)C2 (stereo not given) = 96.3
• CC(C)(C)NC(=O)NC(=O)COc1ccccc1C#N = 80.7
• COc1ccc(C(c2nnnn2C2CCCC2)N2CCN(C3CCCC3)CC2)cc1OC (stereo not given) = 77.7
• CCc1cccc(NC(=O)C2CCCN(S(=O)(=O)c3c(C)[nH]c(=O)[nH]c3=O)C2)c1 (stereo not given) = 88.2
• CCSc1nc2ccccc2n1CC(N)=O = 82.2
• CC1CCN(CCn2c(=S)[nH]c3ncccc3c2=O)CC1 = 93.9
• Cc1ccc(/C=c2\sc3nc(-c4ccccc4Br)nn3c2=O)o1 = 89
• CCC(C(=O)OCC(=O)Nc1c(C)n(C)n(-c2ccccc2)c1=O)c1ccccc1 (stereo not given) = 81.1
• OC(CN1CCN(c2ccccn2)CC1)Cn1c2ccccc2c2ccccc21 (stereo not given) = 92.4
• COC(=O)c1ccc(NC(=O)CN2CCN(c3ccc(Cl)cc3)CC2)cc1 = 96.6
• O=C1C2CCCN2C(c2ccc(Cl)cc2)N1c1nccs1 (stereo not given) = 90.2
• COc1ccc(OCC(O)Cn2c(Br)nc3c2c(=O)[nH]c(=O)n3C)cc1 (stereo not given) = 57.1
• O=C(OCC#CCSc1nnc(-c2ccncc2)o1)c1cccs1 = 83.3

###

viability overview
- Measurement Description: reversal of MRP1-mediated doxorubicin resistance, pilot screen, H69AR cells, doxorubicin co-treatment (AID 601)
- Condition Set: H69AR cells, CellTiter-Glo, 72 h; compound alone cytotoxicity; at 10 µM
Measured Property: viability

* c1ccc(Cc2nnc3n2CCCCC3)cc1 | 99.2%
* O=c1c2[nH]c3ccccc3c2ncn1CCCn1ccnc1 | 96.8%
* Cc1nn(-c2ccc(F)cc2)c2sc(C(=O)OCC(=O)N3CCC(C)CC3)cc12 | 102%
* Nc1nonc1-c1noc(CCCCCN2C(=O)c3ccccc3C2=O)n1 | 105%
* CCCCCOC(=O)C1=C(C)N(C)C(=O)NC1c1cc(Br)c(O)c(OC)c1 (configuration not stated) | 83.2%
* Cn1c(=O)c2c(nc(NCc3ccc4c(c3)OCO4)n2Cc2ccccc2F)n(C)c1=O | 76%
* COc1cc(C2c3c(n[nH]c3C)C(=O)N2c2ccc(Br)cc2)ccc1O (configuration not stated) | 87.8%
* COc1ccc(-c2cc(C(F)(F)F)nc(N3CCN(c4ccc(F)cc4)CC3)n2)cc1OC | 85.5%
* Cc1cc(NC(=O)c2cnn3cccnc23)no1 | 97.8%
* CC1(C)CC(=O)C=C(Nc2ccc(F)cc2)C1 | 96.5%
* O=C(CSc1n[nH]c(-c2cccs2)n1)N1CCN(S(=O)(=O)c2ccccc2)CC1 | 102%
* COc1ccc(CC(=O)NC2CCN(CC(=O)Nc3ccc4c(c3)OCCO4)CC2)cc1OC | 106%
* Cc1ccc(S(=O)(=O)NCCCCC(NC(=O)OC(C)(C)C)C(=O)O)cc1 (configuration not stated) (tested in a mixture with another compound) | 104%
* O=C(Cn1c(=O)[nH]n(-c2ccccc2)c1=O)N1CCCc2ccccc21 | 93.7%
* COc1ccc2c(c1)CCc1c(C(=O)N3CCCc4ccccc43)noc1-2 | 81.1%
* CC(C)Cn1c(-c2ccc(F)cc2)n[nH]c1=S | 88.8%
* CC(C)CCNc1cc(=O)n(C)c(=O)n1C | 88.2%
* O=C(CSCCSCC(=O)c1ccco1)c1ccco1 | 101%
* CCOC(=O)Nc1sc(=S)n(C)c1C | 98%
* CS(=O)(=O)c1ccc2nc(NC(=O)CCC(=O)c3cccs3)sc2c1 | 69.8%
* COc1ccccc1N(CC(=O)NCc1ccccc1)S(C)(=O)=O | 97%
* CC(=O)NS(=O)(=O)c1ccc(NC(=O)c2ccccc2F)cc1 | 99.4%
